Experiment: Plasma and tumor exposures after a single oral dose
Type: in vivo, rat
Details: female, Fischer, rat, plasma; single oral dose 80 mg/kg, PD 664, one out of three animals measurable
Parameter: concentration at 72 h

Check the records and state concentration at 72 h for COc1ccc(F)c(F)c1C(=O)c1cnc(NC2CCN(S(C)(=O)=O)CC2)nc1N
≥ 0.0125 µg/mL

====

Experiment: Plasma and tumor exposures after a single oral dose
Assay type: in vivo, rat
Conditions: female, Fischer, rat, tumor / plasma; single oral dose 80 mg/kg, same animals, PD 664; read-out: Tumor concentration as percent of plasma concentration
Parameter: Kp

Check the records and state Kp for COc1ccc(F)c(F)c1C(=O)c1cnc(NC2CCN(S(C)(=O)=O)CC2)nc1N
~0.5

====

Assay: Plasma and tumor exposures after a single oral dose
Format: in vivo, rat
Conditions: female, Fischer, rat, plasma; single 80 mg/kg oral dose, PD 675, 6 hrs
Parameter: concentration at 6 h (ng/mL)
Please reply with the bare figure in ng/mL and do not write the unit itself.

Check the records and state concentration at 6 h for COc1ccc(F)c(F)c1C(=O)c1cnc(NC2CCN(S(C)(=O)=O)CC2)nc1N
339

====

Experiment: Plasma and tumor exposures after a single oral dose
Type: in vivo, rat
Conditions: female, Fischer, rat, plasma; single oral dose 80 mg/kg, 24 hours, PD 664; read-out: Plasma exposure at 24 hours
Parameter: concentration at 24 h
Write your answer as a measured quantity: the number, then the unit.

Check the records and state concentration at 24 h for COc1ccc(F)c(F)c1C(=O)c1cnc(NC2CCN(S(C)(=O)=O)CC2)nc1N
250 ng/mL

====

Assay: Plasma and tumor exposures after a single oral dose
Assay type: in vivo, rat
Details: female, Fischer, rat, tumor; single oral dose 80 mg/kg, 24 hrs, PD 664; read-out: Tumor drug level at 24 hrs
Parameter: concentration at 24 h
Write your answer as a measured quantity: the number, then the unit.

Check the records and state concentration at 24 h for COc1ccc(F)c(F)c1C(=O)c1cnc(NC2CCN(S(C)(=O)=O)CC2)nc1N [COMPOUND A]
164 ng/g

Every entry's value here was drawn from patent US20060269482A1.
